testedSystem: T1, human TREM2 (human) (UniProt Q9NZC2)
T1 sequence (looked up): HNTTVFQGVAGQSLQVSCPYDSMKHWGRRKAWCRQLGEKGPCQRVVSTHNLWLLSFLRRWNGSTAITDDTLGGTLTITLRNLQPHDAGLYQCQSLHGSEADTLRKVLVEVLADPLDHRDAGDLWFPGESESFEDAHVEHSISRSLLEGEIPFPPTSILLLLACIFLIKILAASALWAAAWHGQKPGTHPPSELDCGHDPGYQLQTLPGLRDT
assayMethodText: 1st screen, 110 nM Ab
Measured Binding Signal (fold over 6E7 parental antibody), listed per entry.
State just the number; it will be interpreted in fold.

binder	unitDescriptor	endpointResult
6E7 variant V67 (antibody, V domains shown) VH: EVQLVQSGAEVKKPGESLKISCKGSGYSFTSYWIAWVRQMPGKGLEWMGMIYPGDSDTRYSPSFQGQVTISADKSISTAYLQWSSLKASDTAMYFCARQRTFYYDSSDYFDYWGQGTLVTVSS VL: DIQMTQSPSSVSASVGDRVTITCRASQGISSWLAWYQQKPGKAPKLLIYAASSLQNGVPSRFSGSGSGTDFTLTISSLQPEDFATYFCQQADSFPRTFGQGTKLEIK	fold	0.8
6E7 variant V42 (antibody, V domains shown) VH: EVQLVQSGAEVKKPGESLKISCKGSGYSFTSAWIAWVRQMPGKGLEWMGIIYPGDSDTRYSPSFQGQVTISADKSISTAYLQWSSLKASDTAMYFCARQRTFYYDSSDYFDYWGQGTLVTVSS VL: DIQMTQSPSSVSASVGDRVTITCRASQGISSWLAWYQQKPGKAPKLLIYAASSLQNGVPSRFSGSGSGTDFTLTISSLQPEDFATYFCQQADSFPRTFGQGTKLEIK	fold	0.45
6E7 variant V55 (antibody, V domains shown) VH: EVQLVQSGAEVKKPGESLKISCKGSGYSFTSYWIAWVRQMPGKGLEWMGIIYPGDSDTIYSPSHQGQVTISADKSISTAYLQWSSLKASDTAMYFCARQRTFYYDSSDYFDYWGQGTLVTVSS VL: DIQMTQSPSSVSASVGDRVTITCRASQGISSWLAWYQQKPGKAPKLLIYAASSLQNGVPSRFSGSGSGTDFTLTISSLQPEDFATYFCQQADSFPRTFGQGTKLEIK	fold	0.24

So what does the record say about Binding Signal (fold over 6E7 parental antibody) for 6E7 variant V18 (antibody, V domains shown) VH: EVQLVQSGAEVKKPGESLKISCKGSGYSFTSYHIAWVRQMPGKGLEWMGIIYPGDSDTRYSPSFQGQVTISADKSISTAYLQWSSLKASDTAMYFCARQRTFYYDSSDYFDYWGQGTLVTVSS VL: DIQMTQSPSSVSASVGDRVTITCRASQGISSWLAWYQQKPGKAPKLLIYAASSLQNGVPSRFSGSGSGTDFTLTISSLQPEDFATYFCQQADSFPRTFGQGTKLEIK ? 0.17

Can you check 6E7 variant V19 (antibody, V domains shown) VH: EVQLVQSGAEVKKPGESLKISCKGSGYSFTSSWIAWVRQMPGKGLEWMGIIYPGDSDTRYSPSFQGQVTISADKSISTAYLQWSSLKASDTAMYFCARQRTFYYDSSDYFDYWGQGTLVTVSS VL: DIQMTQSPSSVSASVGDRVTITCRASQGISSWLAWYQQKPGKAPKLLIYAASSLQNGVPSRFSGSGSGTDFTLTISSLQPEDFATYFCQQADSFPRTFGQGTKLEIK next? 0.59

// data source = patent US20260250381A1
